Read-out: Monocyte Chemoattractant Protein-1 (MCP1), CCL2 (gene 6347)
experiment-summary: BSK_4H_MCP1: BioMAP Diversity Plus: 4H Assay for Monocyte Chemoattractant Protein-1 (MCP1) Biomarker Activity (AID 2283018)
details: primary human endothelial cells (HUVEC); actives raise or lower the signal
The source made the active and inactive calls. Rule for the calls: active = hit-call score of the fitted dose curve at least 0.9, where 1 is the maximum; inactive = score below 0.9.
In this exercise, the only acceptable responses are class 1 for active, class 0 for inactive

Sample answers from the record:
Task: Which outcome was entered for the molecule "C=CC(N)=O" in this test?
Result: class 0

Task: Which outcome was entered for the molecule "CCCCCCOC(=O)c1ccccc1C(=O)OCCCCCC" in this test?
Result: class 0

Task: Which outcome was entered for the molecule "Oc1ccc(Cl)cc1Cl" in this test?
Result: class 0

Continuing:
Task: Which outcome was entered for the molecule "CCOC(=O)C(O)(c1ccc(Cl)cc1)c1ccc(Cl)cc1" in this test?
Result: class 1

Task: Which outcome was entered for the molecule "O=C(N[C@H]1CN2CCC1CC2)c1cc2ccoc2cn1" in this test?
Result: class 0

Task: Which outcome was entered for the molecule "C=CC(=O)NCNC(=O)C=C" in this test?
Result: class 0

Task: Which outcome was entered for the molecule "O=S(=O)(O)C(F)(F)C(F)(F)C(F)(F)C(F)(F)F" in this test?
Result: class 0

====

Read-out: CD40, CD40 (gene 958)
experiment-summary: BSK_SAg_CD40: BioMAP Diversity Plus: SAg Assay for CD40 Biomarker Activity (AID 2283088)
details: primary human HUVEC with PBMC; actives raise or lower the signal
Active and inactive are the calls of the source. How the source made its calls: active means hit-call score of the fitted dose curve at least 0.9, where 1 is the maximum; inactive means score below 0.9.
In this exercise, the only acceptable responses are YES = active, NO = inactive

Task: Which outcome was entered for the compound "C=CC(N)=O" in this test?
Result: NO

Continuing:
Task: Which outcome was entered for the compound "CCNc1nc(NC(C)C)nc(SC)n1" in this test?
Result: NO

Task: Which outcome was entered for the compound "Clc1ccc(Cl)cc1" in this test?
Result: NO

Task: Which outcome was entered for the compound "CN(C)c1nc(=O)n(C2CCCCC2)c(=O)n1C" in this test?
Result: NO

Task: Which outcome was entered for the compound "Cc1cc2c3c(c1)C(c1ccccc1)=N[C@@H](NC(=O)c1ccncc1)C(=O)N3CC2" in this test?
Result: YES

Task: Which outcome was entered for the compound "C=CC(=O)NCNC(=O)C=C" in this test?
Result: NO

Task: Which outcome was entered for the compound "ClC1=C(Cl)[C@]2(Cl)[C@@H]3[C@@H]4C[C@@H]([C@H]5O[C@@H]45)[C@@H]3[C@@]1(Cl)C2(Cl)Cl" in this test?
Result: YES

====

Read-out: ABC Transporter (ABCB11), ABCB11 (gene 8647)
experiment-summary: LTEA_HepaRG_ABCB11: Life Technologies and Expression Analysis (LTEA) Assay for ABC Transporter (ABCB11) using HepaRG (AID 2283463)
details: mRNA level, 48 h; actives raise or lower the signal
Protocol: LTEA_HepaRG is a cell based, multiplexed-readout assay that uses HepaRG, a human liver cell line, with measurements taken at 48 hours after chemical dosing on a 96-well plate.LTEA_HepaRG_ABCB11 is one of 102 assay component(s) measured in the LTEA HepaRG cell culture assay. It is a marker of Steatosis/NR mediated transport.Data from the assay component LTEA_HepaRG_ABCB11 was analyzed into 1 endpoint. […]
Calls of active or inactive are those of the source. The calls were made as follows: active = hit-call score of the fitted dose curve at least 0.9, where 1 is the maximum; inactive = score below 0.9.
In this exercise, the only acceptable responses are 1 (yes) = active, 0 (no) = inactive

Sample answers from the record:
Task: Which outcome was entered for the molecule "CCC(C)(CC)c1cc(NC(=O)c2c(OC)cccc2OC)on1" in this test?
Result: 1 (yes)

Task: Which outcome was entered for the molecule "CO/C=C(/C(=O)OC)c1ccccc1COc1cccc(C(F)(F)F)n1" in this test?
Result: 1 (yes)

Task: Which outcome was entered for the molecule "CC1=C2C[C@H]3[C@@H](CC=C4C[C@@H](O)CC[C@@]43C)[C@@H]2CC[C@]12O[C@@H]1C[C@H](C)CN[C@H]1[C@H]2C" in this test?
Result: 0 (no)

Task: Which outcome was entered for the molecule CC(C)C(=O)OCC(C)(C)C(OC(=O)C(C)C)C(C)C (stereo not drawn) in this test?
Result: 0 (no)

Task: Which outcome was entered for the molecule "CCSC(=O)N(CC)C1CCCCC1" in this test?
Result: 0 (no)

Continuing:
Task: Which outcome was entered for the molecule "COc1ccc(O)c(C(C)(C)C)c1" in this test?
Result: 0 (no)

Task: Which outcome was entered for the molecule "Cc1ccccc1O" in this test?
Result: 0 (no)

Task: Which outcome was entered for the molecule "CN(C)CCO" in this test?
Result: 0 (no)

====

Read-out: Matrix Metallopeptidase 1 (MMP1), MMP1 (gene 4312)
experiment-summary: BSK_BE3C_MMP1: BioMAP Diversity Plus: BE3C Assay for Matrix Metallopeptidase 1 (MMP1) Biomarker Activity (AID 2283024)
details: primary human bronchial epithelial cells; actives raise or lower the signal
Calls of active or inactive are those of the source. How the source made its calls: active means hit-call score of the fitted dose curve at least 0.9, where 1 is the maximum; inactive means score below 0.9.
In this exercise, the only acceptable responses are active, inactive

Sample answers from the record:
Task: Which outcome was entered for the molecule "CCOCCOC(C)=O" in this test?
Result: inactive

Task: Which outcome was entered for the molecule "Oc1ccc(C(c2ccc(O)cc2)(C(F)(F)F)C(F)(F)F)cc1" in this test?
Result: active

Task: Which outcome was entered for the molecule "CCC(C)(CC)c1cc(NC(=O)c2c(OC)cccc2OC)on1" in this test?
Result: inactive

Task: Which outcome was entered for the molecule "CCCCCCOC(=O)c1ccccc1C(=O)OCCCCCC" in this test?
Result: inactive

Task: Which outcome was entered for the molecule "c1ccc(-c2ccccc2)cc1" in this test?
Result: inactive

Task: Which outcome was entered for the molecule "O=NN(c1ccccc1)c1ccccc1" in this test?
Result: inactive

# input for lookup
Task: Which outcome was entered for the molecule Clc1ccc(C(c2ccccc2Cl)C(Cl)(Cl)Cl)cc1 (configuration not stated) in this test?
Result: inactive

====

Read-out: Low-density lipoprotein receptor (LDLR), LDLR (gene 3949)
experiment-summary: BSK_CASM3C_LDLR: BioMAP Diversity Plus: CASM3C Assay for Low-density lipoprotein receptor (LDLR) Biomarker Activity (AID 2283045);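 note: LDLR protein level on the cell surface quantified by ELISA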
details: primary human coronary artery smooth muscle cells; actives raise or lower the signal
Active and inactive are the calls of the source. The calls were made as follows: active = hit-call score of the fitted dose curve at least 0.9, where 1 is the maximum; inactive = score below 0.9.
In this exercise, the only acceptable responses are active, inactive

Sample answers from the record:
Task: Which outcome was entered for the molecule "ClC1=C(Cl)[C@]2(Cl)[C@@H]3[C@@H]4C[C@@H]([C@H]5O[C@@H]45)[C@@H]3[C@@]1(Cl)C2(Cl)Cl" in this test?
Result: inactive

Task: Which outcome was entered for the molecule "C[C@]12CCC(=O)C=C1CC[C@@H]1[C@@H]2CC[C@@]2(C)[C@H]1CC[C@]2(C)O" in this test?
Result: inactive

Task: Which outcome was entered for the molecule "COc1ccc(O)c(C(C)(C)C)c1" in this test?
Result: inactive

Task: Which outcome was entered for the molecule "O=C(N[C@H]1CN2CCC1CC2)c1cc2ccoc2cn1" in this test?
Result: inactive

Continuing:
Task: Which outcome was entered for the molecule "Cc1cccc(C)c1N" in this test?
Result: inactive

Task: Which outcome was entered for the molecule "ClC(Cl)=C(c1ccc(Cl)cc1)c1ccc(Cl)cc1" in this test?
Result: inactive

Task: Which outcome was entered for the molecule CCC(C)c1cc([N+](=O)[O-])cc([N+](=O)[O-])c1O (configuration not stated) in this test?
Result: inactive

Task: Which outcome was entered for the molecule "CCCCCCCCCc1ccc(O)cc1" in this test?
Result: active

Task: Which outcome was entered for the molecule "CC#Cc1cc(C)nc(Nc2ccccc2)n1" in this test?
Result: inactive

Task: Which outcome was entered for the molecule "CCOC(=O)C(O)(c1ccc(Cl)cc1)c1ccc(Cl)cc1" in this test?
Result: inactive

Task: Which outcome was entered for the molecule "Cc1ccccc1O" in this test?
Result: inactive

Task: Which outcome was entered for the molecule "C[C@]12CCC(=O)C=C1CC[C@@H]1[C@@H]2CC[C@]2(C)C(=O)CC[C@@H]12" in this test?
Result: active

Task: Which outcome was entered for the molecule "Cc1cc2c3c(c1)C(c1ccccc1)=N[C@@H](NC(=O)c1ccncc1)C(=O)N3CC2" in this test?
Result: inactive

Task: Which outcome was entered for the molecule "Oc1ccc(Cl)cc1Cl" in this test?
Result: inactive

Task: Which outcome was entered for the molecule "CN(C)CCO" in this test?
Result: inactive

Task: Which outcome was entered for the molecule "O=C(NC(=O)c1cc(F)c(F)cc1Cl)Nc1cc(F)ccc1N1CCC(C(=O)O)CC1" in this test?
Result: inactive

Task: Which outcome was entered for the molecule "Cc1cccc([N+](=O)[O-])c1" in this test?
Result: inactive

Task: Which outcome was entered for the molecule Clc1ccc(C(c2ccccc2Cl)C(Cl)(Cl)Cl)cc1 (configuration not stated) in this test?
Result: active

Task: Which outcome was entered for the molecule "O=C(O)C(F)(F)C(F)(F)C(F)(F)C(F)(F)C(F)(F)C(F)(F)C(F)(F)C(F)(F)F" in this test?
Result: inactive

Task: Which outcome was entered for the molecule "O=C(O)C(F)(F)C(F)(F)C(F)(F)C(F)(F)C(F)(F)F" in this test?
Result: inactive

Task: Which outcome was entered for the molecule "O=C(NC(=O)c1c(F)cccc1F)Nc1cc(Cl)c(OC(F)(F)C(F)F)c(Cl)c1" in this test?
Result: inactive

Task: Which outcome was entered for the molecule "O=NN(c1ccccc1)c1ccccc1" in this test?
Result: inactive

Task: Which outcome was entered for the molecule "CCCCCCOC(=O)c1ccccc1C(=O)OCCCCCC" in this test?
Result: inactive

Task: Which outcome was entered for the molecule "CCC(C)(CC)c1cc(NC(=O)c2c(OC)cccc2OC)on1" in this test?
Result: inactive

Source of measurements: PubChem BioAssay (EPA / NIEHS)
